# STUDY_TARGET: Gag-Pol polyprotein [588-1027]/[588-1147] (Human immunodeficiency virus 1)
# Construct: 588-1027; 588-1147
# EXPERIMENT_SUMMARY: HIV-1 RT Assay
# CONDITION: pH 8; 37 °C
REPORTED_PROPERTY: IC50 (µM)
// note: answer is a bare numeric in µM

Find the recorded IC50 belonging to Cc1nc(CCCCCO)n2nc(Cl)ccc12 and report it.
100

* * *

# STUDY_TARGET: Gag-Pol polyprotein [588-1027]/[588-1147] (Human immunodeficiency virus 1, UniProt P04585)
# Construct: 588-1027; 588-1147
# EXPERIMENT_SUMMARY: HIV-1 RT Assay
REPORTED_PROPERTY: IC50 (nM)
// note: answer is a bare numeric in nM

Query IC50 on Gag-Pol polyprotein [588-1027]/[588-1147] (Human immunodeficiency virus 1, UniProt P04585) for Cc1nc(CCCCCCC(=O)c2ccccc2)n2nc(-n3cncc3C)ccc12
100

Query IC50 on Gag-Pol polyprotein [588-1027]/[588-1147] (Human immunodeficiency virus 1, UniProt P04585) for Cc1nc(CCCCCCC(=O)c2ccccc2)n2nc(-n3cncn3)ccc12
100
